ASSAY SYSTEM: T1, FITC labeled BCMA (acrobiosystem, Cat. No. BCA-HF254) (UniProt Q02223 1-54, FITC labeled (site not stated))
T1 construct: Soluble labeled protein used to stain CAR-T cells; also called BCMA antigen protein; BCMA protein
T1 sequence (looked up): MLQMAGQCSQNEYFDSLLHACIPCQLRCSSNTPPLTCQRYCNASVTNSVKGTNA
ASSAY EXPLANATION: flow cytometry, CAR-T cells stained with FITC labeled BCMA

BINDER | binding result
chimeric antigen receptor comprising humanized anti-BCMA single domain antibody BH60_GKV2, on CAR-T cells (other) QVQLVESGGGLVQPGGSLRLSCAASGGIFTINDMAWFRQAPGKQRELVAHISRSGSTYYRDSVKGRFTISRDNAKNSLYLQMNSLRAEDTAVYYCNSIDRPLSYGQGTQVTVSTTTPAPRPPTPAPTIASQPLSLRPEACRPAAGGAVHTRGLDFACDIYIWAPLAGTCGVLLLSLVITLYCKRGRKKLLYIFKQPFMRPVQTTQEEDGCSCRFPEEEEGGCELRVKFSRSADAPAYQQGQNQLYNELNLGRREEYDVLDKRRGRDPEMGGKPRRKNPQEGLYNELQKDKMAEAYSEIGMKGERRRGKGHDGLYQGLSTATKDTYDALHMQALPPR | binds
chimeric antigen receptor comprising humanized anti-BCMA single domain antibody BH86_V6, on CAR-T cells (other) QVQLVESGGGLVQAGESLRLSCAASGRAISSIVMAWWRQTPGAEREFVASINRWGGTPYYSNSVKGRFAISRDNSKNTIHLQMNSLRSEDTAVYYCAAASTLDSGYDYWGHGTLVTVSTTTPAPRPPTPAPTIASQPLSLRPEACRPAAGGAVHTRGLDFACDIYIWAPLAGTCGVLLLSLVITLYCKRGRKKLLYIFKQPFMRPVQTTQEEDGCSCRFPEEEEGGCELRVKFSRSADAPAYQQGQNQLYNELNLGRREEYDVLDKRRGRDPEMGGKPRRKNPQEGLYNELQKDKMAEAYSEIGMKGERRRGKGHDGLYQGLSTATKDTYDALHMQALPPR | binds
